# target: Serine/threonine-protein kinase PLK3 (Homo sapiens) (UniProt Q9H4B4)
# Sequence (Q9H4B4 whole entry, looked up): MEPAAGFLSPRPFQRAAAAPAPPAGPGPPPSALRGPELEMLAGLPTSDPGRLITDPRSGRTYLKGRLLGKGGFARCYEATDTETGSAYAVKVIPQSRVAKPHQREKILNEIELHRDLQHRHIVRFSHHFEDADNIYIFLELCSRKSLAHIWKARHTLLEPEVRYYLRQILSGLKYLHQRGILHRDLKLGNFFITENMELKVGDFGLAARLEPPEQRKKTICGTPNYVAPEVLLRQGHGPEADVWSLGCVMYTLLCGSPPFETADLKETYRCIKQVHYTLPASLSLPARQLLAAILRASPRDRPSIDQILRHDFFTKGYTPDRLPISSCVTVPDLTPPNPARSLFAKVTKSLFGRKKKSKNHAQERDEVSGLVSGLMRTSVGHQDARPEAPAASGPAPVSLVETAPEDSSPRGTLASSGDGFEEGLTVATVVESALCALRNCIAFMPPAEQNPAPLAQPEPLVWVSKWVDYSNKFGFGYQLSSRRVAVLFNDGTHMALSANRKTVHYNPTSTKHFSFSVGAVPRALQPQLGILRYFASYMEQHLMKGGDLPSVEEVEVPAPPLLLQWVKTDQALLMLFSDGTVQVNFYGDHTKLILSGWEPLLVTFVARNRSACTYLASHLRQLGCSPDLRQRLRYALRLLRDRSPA
# condition notes: at 1 µM
# Description: Millipore: Percentage of residual kinase activity of PLK3 at 1uM relative to control. Control inhibitor: Wortmannin at 100.0uM. Buffer: 8 mM MOPS pH 7.0, 0.2 mM EDTA
parameter measured: residual activity (%)
Answer in %, number only, no unit symbol.

| smiles repr | result |
| --- | --- |
| Nc1ncnc2[nH]nc(Nc3ccc(F)cc3)c12 | 103 |
| O=C1C(Cl)=C(N2C(=O)CCC2=O)C(=O)c2ccccc21 | 96 |
| O=C1Nc2ccc(Cl)cc2/C1=C/c1cc(Cl)c(O)c(Cl)c1 | 94 |

Input line: Hello, please tell me recorded residual activity for this one: "Nc1ncnc2c1c(-c1ccc(Oc3ccccc3)cc1)cn2C1CCCC1"
Output line: 80

Input line: Hello, please tell me recorded residual activity for this one: "CCCCc1c(-c2ccc(O)cc2)[nH]c2nccnc12"
Output line: 100

---

# residual activity annotations
# target: NUAK family SNF1-like kinase 1 (Homo sapiens)
# Sequence (whole entry): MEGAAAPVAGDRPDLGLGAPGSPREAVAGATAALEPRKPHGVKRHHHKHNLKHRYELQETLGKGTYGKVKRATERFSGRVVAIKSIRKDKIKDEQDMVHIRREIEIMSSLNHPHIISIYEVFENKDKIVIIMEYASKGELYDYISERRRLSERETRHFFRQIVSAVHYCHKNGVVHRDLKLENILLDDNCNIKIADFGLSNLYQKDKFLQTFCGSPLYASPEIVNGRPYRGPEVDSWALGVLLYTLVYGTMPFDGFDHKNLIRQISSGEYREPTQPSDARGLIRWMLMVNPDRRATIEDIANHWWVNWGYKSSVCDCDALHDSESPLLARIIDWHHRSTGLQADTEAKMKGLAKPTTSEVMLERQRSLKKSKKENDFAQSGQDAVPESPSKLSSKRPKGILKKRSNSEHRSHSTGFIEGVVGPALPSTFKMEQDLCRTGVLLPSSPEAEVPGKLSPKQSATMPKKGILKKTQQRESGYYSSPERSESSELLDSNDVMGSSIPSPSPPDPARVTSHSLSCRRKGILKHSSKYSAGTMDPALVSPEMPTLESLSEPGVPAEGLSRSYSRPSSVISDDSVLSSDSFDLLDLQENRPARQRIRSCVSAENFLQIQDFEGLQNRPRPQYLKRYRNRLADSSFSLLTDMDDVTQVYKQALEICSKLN
# condition notes: at 10 µM
Answer in %, number only, no unit symbol.

Input line: Hello, please tell me recorded residual activity for this one: "Nc1nc(Nc2ccc(S(N)(=O)=O)cc2)nn1C(=O)c1c(F)cccc1F"
Output line: 7

Input line: Hello, please tell me recorded residual activity for this one: "c1ccc(-c2cnc(Nc3ccc(OCCN4CCCC4)cc3)s2)cc1"
Output line: 27

Input line: Hello, please tell me recorded residual activity for this one: "COc1ccc2c(c1)c(C1=C(c3c[nH]c4ccccc34)C(=O)NC1=O)cn2CCCN(C)C"
Output line: 10

Input line: Hello, please tell me recorded residual activity for this one: "Nc1ncnc2c1c(-c1ccc(Oc3ccccc3)cc1)cn2C1CCCC1"
Output line: 67

Input line: Hello, please tell me recorded residual activity for this one: "O=C(CCCc1ccc(-c2ccccc2F)cc1)Nc1ccc(O)cc1"
Output line: 78

Input line: Hello, please tell me recorded residual activity for this one: "O=C(Nc1nc2ccccc2n1CCN1CCOCC1)c1cccc([N+](=O)[O-])c1"
Output line: 66

Input line: Hello, please tell me recorded residual activity for this one: "CC(C)(C)n1nc(Cc2cccc3ccccc23)c2c(N)ncnc21"
Output line: 92

Input line: Hello, please tell me recorded residual activity for this one: "O=C(O)/C=C/c1cc(Br)c(Br)c(Br)c1Br"
Output line: 94

Input line: Hello, please tell me recorded residual activity for this one: "O=S(=O)(c1cccc2cnccc12)N1CCCNCC1"
Output line: 52

Input line: Hello, please tell me recorded residual activity for this one: "NC(=O)c1cccc(-c2cc(Nc3ccc(OC(F)(F)F)cc3)ncn2)c1"
Output line: 90

Input line: Hello, please tell me recorded residual activity for this one: CSc1nc(-c2ccc(F)cc2)c(-c2ccnc(NC(C)c3ccccc3)c2)[nH]1 (stereo unspecified)
Output line: 60
